- tgt: HA of A/Hong Kong/8/68 (H3N2) virus (influenza A virus)
- measurement notes: cell-based or functional assay
property measured: Neutralization IC50, H3-HK68
Reply with the number and its unit after it.

Some binders with known Neutralization IC50, H3-HK68 results, for comparison:
1. Antibody 12 (antibody, V domains shown) VH: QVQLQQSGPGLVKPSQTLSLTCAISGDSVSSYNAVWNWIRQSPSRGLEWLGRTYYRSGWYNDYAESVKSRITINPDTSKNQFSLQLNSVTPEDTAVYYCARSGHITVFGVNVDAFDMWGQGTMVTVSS VL: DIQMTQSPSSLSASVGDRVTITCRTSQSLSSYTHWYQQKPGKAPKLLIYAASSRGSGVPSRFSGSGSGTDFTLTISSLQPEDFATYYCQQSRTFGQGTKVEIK | 0.42 µg/mL
2. Antibody 11 (antibody, V domains shown) VH: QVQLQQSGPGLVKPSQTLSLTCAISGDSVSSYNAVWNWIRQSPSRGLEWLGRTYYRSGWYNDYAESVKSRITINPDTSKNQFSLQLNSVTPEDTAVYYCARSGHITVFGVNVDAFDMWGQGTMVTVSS VL: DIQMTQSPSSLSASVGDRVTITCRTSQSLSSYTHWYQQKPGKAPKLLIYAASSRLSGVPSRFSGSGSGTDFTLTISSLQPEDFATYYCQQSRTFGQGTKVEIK | 0.46 µg/mL
3. Antibody 14 (antibody, V domains shown) VH: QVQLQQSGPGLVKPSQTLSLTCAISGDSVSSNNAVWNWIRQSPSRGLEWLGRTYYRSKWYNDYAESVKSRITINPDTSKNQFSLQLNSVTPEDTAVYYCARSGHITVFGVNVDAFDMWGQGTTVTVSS VL: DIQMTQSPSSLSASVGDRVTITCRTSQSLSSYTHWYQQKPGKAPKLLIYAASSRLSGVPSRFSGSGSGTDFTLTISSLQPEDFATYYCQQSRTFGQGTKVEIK | 0.65 µg/mL

API: the following record is the query input.
Looking up Antibody 15 (antibody, V domains shown) VH: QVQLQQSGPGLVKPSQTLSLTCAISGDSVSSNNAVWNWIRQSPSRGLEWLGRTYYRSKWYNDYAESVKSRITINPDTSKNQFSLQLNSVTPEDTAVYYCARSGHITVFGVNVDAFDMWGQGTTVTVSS VL: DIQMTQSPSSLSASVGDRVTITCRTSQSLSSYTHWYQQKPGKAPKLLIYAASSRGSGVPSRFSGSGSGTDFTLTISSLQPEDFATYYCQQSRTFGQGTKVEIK , I see its Neutralization IC50, H3-HK68 listed as 0.5 µg/mL

Entry source: patent US20200109188A1
